Hello, the source for this data is patent US20240317840A1, in case you need it.

target: T1, HBsAg AD serotype (Hepatitis B virus); assay: SPR Biacore T200, HBsAg particles immobilized, antibody as analyte, 1:1 fit;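 further: Anti-HBsAg antibodies assessed for binding against both major HBsAg serotypes, AY and AD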
T1 construct: also called HBsAg serotype AD
ASSAY READOUT: pKd
On this scale, pKd is minus log10 of a concentration expressed in M (mol/L).

BINDER | READING
NOV3842 (antibody, human IgG1, lambda, V domains shown, Full human IgG1 (lambda) expressed in CHO cells) VH: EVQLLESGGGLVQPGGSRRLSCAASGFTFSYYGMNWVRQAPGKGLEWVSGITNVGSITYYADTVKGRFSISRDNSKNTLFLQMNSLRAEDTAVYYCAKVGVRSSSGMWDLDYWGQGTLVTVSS VL: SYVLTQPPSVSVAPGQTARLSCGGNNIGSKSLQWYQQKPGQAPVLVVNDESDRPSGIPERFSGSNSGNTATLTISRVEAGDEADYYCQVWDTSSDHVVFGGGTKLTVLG | 9.89
NOV3540 (antibody, human IgG1, kappa, V domains shown, Full human IgG1 (kappa) expressed in CHO cells) VH: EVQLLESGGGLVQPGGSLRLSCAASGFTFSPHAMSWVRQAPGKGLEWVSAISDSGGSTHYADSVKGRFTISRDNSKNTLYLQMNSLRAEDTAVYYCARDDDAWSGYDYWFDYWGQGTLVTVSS VL: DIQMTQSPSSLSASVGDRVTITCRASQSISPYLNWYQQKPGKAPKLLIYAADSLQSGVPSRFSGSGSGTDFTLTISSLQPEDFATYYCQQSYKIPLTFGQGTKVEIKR | 9.41
NOV3834 (antibody, human IgG1, kappa, V domains shown, Full human IgG1 (kappa) expressed in CHO cells) VH: QVQLVESGGGVVQPGRSLRLSCAASGFTFNRYGMHWVRQAPGKGLEWVAGIWHDGSHKYYADSLRGRFTISRDNAKNTLDLQLNRLRAEDTSVYYCVRQTNRGRLDDAFDIWGQGTMVTVSS VL: DIQMTQSPSSLSAAVGDRVTISCRASQTISSYLNWYQQKPGEAPKLLIYAASTLQSGVPSRFGGSGSGTDFTLTISSLQPEDSATYYCQQNYDTLWTFGQGTKVEIKR | 7.40
NOV3832 (antibody, human IgG1, lambda, V domains shown, Full human IgG1 (lambda) expressed in CHO cells) VH: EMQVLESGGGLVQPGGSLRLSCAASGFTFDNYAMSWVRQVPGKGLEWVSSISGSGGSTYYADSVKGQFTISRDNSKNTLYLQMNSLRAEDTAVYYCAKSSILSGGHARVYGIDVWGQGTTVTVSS VL: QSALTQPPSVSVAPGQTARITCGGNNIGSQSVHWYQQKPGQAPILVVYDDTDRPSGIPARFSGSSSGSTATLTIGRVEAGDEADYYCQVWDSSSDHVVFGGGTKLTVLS | 9.66
NOV3833 (antibody, human IgG1, lambda, V domains shown, Full human IgG1 (lambda) expressed in CHO cells) VH: EMQVLESGGGLVQPGGSLRLSCAASGFTFHNYAMSWVRQVPGKGLEWVSSISGSGGSTYYADSVKGQFTISRDNSKNTLYLQMNSLRAEDTAVYYCAKSSILSGGHARVYGIDVWGQGTTVTVSS VL: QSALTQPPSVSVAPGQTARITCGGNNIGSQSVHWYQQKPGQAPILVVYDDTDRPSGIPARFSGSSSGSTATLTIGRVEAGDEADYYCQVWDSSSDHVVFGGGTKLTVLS | 9.48
NOV3841 (antibody, human IgG1, lambda, V domains shown, Full human IgG1 (lambda) expressed in CHO cells) VH: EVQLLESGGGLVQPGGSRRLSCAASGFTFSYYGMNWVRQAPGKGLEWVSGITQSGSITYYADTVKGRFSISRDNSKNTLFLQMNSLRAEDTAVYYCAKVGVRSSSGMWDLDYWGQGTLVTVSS VL: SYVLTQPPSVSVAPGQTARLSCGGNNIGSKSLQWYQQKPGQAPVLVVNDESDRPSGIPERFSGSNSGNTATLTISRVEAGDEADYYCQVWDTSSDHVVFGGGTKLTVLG | 9.04

# ---- query binder ----
Req: // query pKd value for entry NOV3838 (antibody, human IgG1, kappa, V domains shown, Full human IgG1 (kappa) expressed in CHO cells) VH: QVQLQESGGRLVRPGGSLRLSCAASGFIFTDYYMTWIRQAPGKGPEWIAFITSGGETTYYADSVKGRFTISRDNAKKSLFLQMYSLRADDTAVYYCVRAHFDLYQYDTRGDFTYYFDNWGLGTLVSVSS VL: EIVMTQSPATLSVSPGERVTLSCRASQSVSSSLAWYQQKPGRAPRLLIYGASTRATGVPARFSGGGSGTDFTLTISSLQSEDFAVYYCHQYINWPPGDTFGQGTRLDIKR
Resp: 9.17
